Data credit: patent US7692030B2

Tested on: SF-295
Assay: NCI DTP human tumor cell line screen (SRB)
Type: cell-based
Settings: CNS Cancer, 10 μM, 48 h
# label = label 1 if Growth Percent < 10% else label 0

Solved cases (5 shown):
> print(dat)
                                   molecule  classification
1  CC1CCC2C(C)C(OCCn3cc(C(=O)NN=Cc4ccccc4O)nn3)OC3OC4(C)CCC1C32OO4 (stereo not drawn) [ART-Triazole-Sal]         label 0
2  CC1CCC2C(C)C(OCc3ccc(C(=O)NN=Cc4ccccc4O)o3)OC3OC4(C)CCC1C32OO4 (stereo not drawn) [ART-Furan-Sal]         label 0
3  CC1CCC2C(C)C(OCc3ccc(C(=O)NN=Cc4ccccc4O)cc3)OC3OC4(C)CCC1C32OO4 (stereo not drawn) [ART-Phe-Sal]         label 1
4  Cc1ncc(CO)c(C=NNC(=O)c2ccc(COC3OC4OC5(C)CCC6C(C)CCC(C3C)C46OO5)cc2)c1O (stereo not drawn) [ART-Phe-Pyridoxal]         label 0
5  CC1CCC2C(C)C(OCc3ccc(C(=O)NN=Cc4ccccc4)cc3)OC3OC4(C)CCC1C32OO4 (stereo not drawn) [ART-Phe-Bz]         label 0

Next item in the queue.
Could you please tell me whether Growth Percent recorded for CC1CCC2C(C)C(OCc3ccc(C(=O)NN=Cc4ccccc4O)nc3)OC3OC4(C)CCC1C32OO4 (stereo not drawn) [ART-Pyr-Sal] is less than 10%? label 1

----------
Test system: SN12C
Assay: NCI DTP human tumor cell line screen (SRB)
Type: cell-based
Conditions: Renal Cancer, 10 μM, 48 h
Protocol: Representative compounds of the invention, prepared as described in EXAMPLES 1-6, were submitted to the Developmental Therapeutics Program of the United States National Cancer Institute (NCl) to screen for anti-cancer activity. […] Bound stain was subsequently solubilized with 10 mM trizma base, and the absorbance was read on an automated plate reader at a wavelength of 515 nm. […]
REPORTED PROPERTY: Growth Percent
Include the unit right after the number.

Solved cases below.
> print(dat)
                                   compound  test.target  reported.property  result
1  CC1CCC2C(C)C(OCc3ccc(C(=O)NN=Cc4ccccc4)cc3)OC3OC4(C)CCC1C32OO4 (stereo not drawn)        SN12C     Growth Percent  23.38%
2  CC1CCC2C(C)C(OCc3ccc(C(=O)NN=Cc4ccccc4O)o3)OC3OC4(C)CCC1C32OO4 (stereo not drawn)        SN12C     Growth Percent  27.18%
3  CC1CCC2C(C)C(OCc3ccc(C(=O)NN=Cc4ccccc4O)nc3)OC3OC4(C)CCC1C32OO4 (stereo not drawn)        SN12C     Growth Percent  22.81%
4  Cc1ncc(CO)c(C=NNC(=O)c2ccc(COC3OC4OC5(C)CCC6C(C)CCC(C3C)C46OO5)cc2)c1O (stereo not drawn)        SN12C     Growth Percent  16.82%
5  CC1CCC2C(C)C(OCCn3cc(C(=O)NN=Cc4ccccc4O)nn3)OC3OC4(C)CCC1C32OO4 (stereo not drawn)        SN12C     Growth Percent  45.26%

Consider now this further compound.
Record request: Growth Percent value, item CC1CCC2C(C)C(OCc3ccc(C(=O)NN=Cc4ccccc4O)cc3)OC3OC4(C)CCC1C32OO4 (stereo not drawn) 25.25%

----------
Field: Growth Percent. Provide a value for each of the compounds that follow.
Test system: SW-620
Assay: NCI DTP human tumor cell line screen (SRB)
Format: cell-based
Settings: Colon Cancer, 10 μM, 48 h
Hi, when you answer, please include the unit after the number. Thanks!

// known answers, use as guide
> print(dat)
                                   compound  result
1  CC1CCC2C(C)C(OCc3ccc(C(=O)NN=Cc4ccccc4)cc3)OC3OC4(C)CCC1C32OO4 (stereo not drawn) [ART-Phe-Bz]  19.48%
2  CC1CCC2C(C)C(OCc3ccc(C(=O)NN=Cc4ccccc4O)o3)OC3OC4(C)CCC1C32OO4 (stereo not drawn) [ART-Furan-Sal]  13.95%
3  CC1CCC2C(C)C(OCc3ccc(C(=O)NN=Cc4ccccc4O)nc3)OC3OC4(C)CCC1C32OO4 (stereo not drawn) [ART-Pyr-Sal]  26.43%
4  CC1CCC2C(C)C(OCc3ccc(C(=O)NN=Cc4ccccc4O)cc3)OC3OC4(C)CCC1C32OO4 (stereo not drawn) [ART-Phe-Sal]  30.24%
5  Cc1ncc(CO)c(C=NNC(=O)c2ccc(COC3OC4OC5(C)CCC6C(C)CCC(C3C)C46OO5)cc2)c1O (stereo not drawn) [ART-Phe-Pyridoxal]  14.32%

Request the reported Growth Percent associated with CC1CCC2C(C)C(OCCn3cc(C(=O)NN=Cc4ccccc4O)nn3)OC3OC4(C)CCC1C32OO4 (stereo not drawn) [ART-Triazole-Sal] 31.03%

----------
Can you tell me Growth Percent for the items I'm about to list?
Tested on: OVCAR-3
Assay: NCI DTP human tumor cell line screen (SRB)
Type: cell-based
Details: Ovarian Cancer, 10 μM, 48 h
Give bare numbers, in %.

Guide cases for Growth Percent, answers given:
> print(dat)
                                   compound  quantitative.result
1  CC1CCC2C(C)C(OCCn3cc(C(=O)NN=Cc4ccccc4O)nn3)OC3OC4(C)CCC1C32OO4 (stereo not drawn) [ART-Triazole-Sal]                50.36
2  CC1CCC2C(C)C(OCc3ccc(C(=O)NN=Cc4ccccc4O)o3)OC3OC4(C)CCC1C32OO4 (stereo not drawn) [ART-Furan-Sal]                30.23
3  CC1CCC2C(C)C(OCc3ccc(C(=O)NN=Cc4ccccc4)cc3)OC3OC4(C)CCC1C32OO4 (stereo not drawn) [ART-Phe-Bz]                11.56
4  Cc1ncc(CO)c(C=NNC(=O)c2ccc(COC3OC4OC5(C)CCC6C(C)CCC(C3C)C46OO5)cc2)c1O (stereo not drawn) [ART-Phe-Pyridoxal]                19.87
5  CC1CCC2C(C)C(OCc3ccc(C(=O)NN=Cc4ccccc4O)cc3)OC3OC4(C)CCC1C32OO4 (stereo not drawn) [ART-Phe-Sal]                29.79

Moving on to another compound below.
# get_value(readout='Growth Percent', item= CC1CCC2C(C)C(OCc3ccc(C(=O)NN=Cc4ccccc4O)nc3)OC3OC4(C)CCC1C32OO4 (stereo not drawn) [ART-Pyr-Sal] ) 35.18

----------
System: NCI/ADR-RES
Assay: NCI DTP human tumor cell line screen (SRB)
Format: cell-based
Details: Breast Cancer, 10 μM, 48 h
So basically: Growth Percent at 20% or higher? That is label 1. Lower than 20%? That is label 0.

> print(dat)
                                   compound  test.target  classification
1  CC1CCC2C(C)C(OCCn3cc(C(=O)NN=Cc4ccccc4O)nn3)OC3OC4(C)CCC1C32OO4 (stereo not drawn)  NCI/ADR-RES         label 0
2  CC1CCC2C(C)C(OCc3ccc(C(=O)NN=Cc4ccccc4O)cc3)OC3OC4(C)CCC1C32OO4 (stereo not drawn)  NCI/ADR-RES         label 1
3  CC1CCC2C(C)C(OCc3ccc(C(=O)NN=Cc4ccccc4O)nc3)OC3OC4(C)CCC1C32OO4 (stereo not drawn)  NCI/ADR-RES         label 0
4  CC1CCC2C(C)C(OCc3ccc(C(=O)NN=Cc4ccccc4O)o3)OC3OC4(C)CCC1C32OO4 (stereo not drawn)  NCI/ADR-RES         label 0

Consider the additional compound presented here.
Textbook exercise: given the entry Cc1ncc(CO)c(C=NNC(=O)c2ccc(COC3OC4OC5(C)CCC6C(C)CCC(C3C)C46OO5)cc2)c1O (stereo not drawn) , state whether its Growth Percent is greater than or equal to 20%. label 1

----------
Test system: SNB-19
Assay: NCI DTP human tumor cell line screen (SRB)
Format: cell-based
Conditions: CNS Cancer, 10 μM, 48 h
Please provide measured Growth Percent for the entries that follow.
I'd appreciate it if you included the unit after the number.

// below: answered molecules
> print(dat)
                                   molecule  reported.property  result
1  CC1CCC2C(C)C(OCCn3cc(C(=O)NN=Cc4ccccc4O)nn3)OC3OC4(C)CCC1C32OO4 (stereo not drawn)     Growth Percent  45.73%
2  CC1CCC2C(C)C(OCc3ccc(C(=O)NN=Cc4ccccc4O)nc3)OC3OC4(C)CCC1C32OO4 (stereo not drawn)     Growth Percent  20.71%
3  Cc1ncc(CO)c(C=NNC(=O)c2ccc(COC3OC4OC5(C)CCC6C(C)CCC(C3C)C46OO5)cc2)c1O (stereo not drawn)     Growth Percent   4.26%
4  CC1CCC2C(C)C(OCc3ccc(C(=O)NN=Cc4ccccc4O)cc3)OC3OC4(C)CCC1C32OO4 (stereo not drawn)     Growth Percent  27.53%
5  CC1CCC2C(C)C(OCc3ccc(C(=O)NN=Cc4ccccc4)cc3)OC3OC4(C)CCC1C32OO4 (stereo not drawn)     Growth Percent  51.29%

Read the next record carefully.
Fill in the recorded Growth Percent for this molecule, with SNB-19 as test system: CC1CCC2C(C)C(OCc3ccc(C(=O)NN=Cc4ccccc4O)o3)OC3OC4(C)CCC1C32OO4 (stereo not drawn) 25.11%
